Values from PubChem BioAssay AID1918937

System: 521955-158-R2-J5-PDC complex spheroid viability;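 also: spheroids exposed to agents for seven days; percent of DMSO vehicle control luminescence viability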
Test: Anticancer human tumor 521955-158-R2-J5-PDC patient-derived pancreatic carcinoma cell line growth inhibition
Conditions: second compound 0.316 µM; first compound 3.16 µM; hits give low values
assay metric: viability, T/C (%)
Numbers only here, please. The scale is %.

>  <compound>
COc1ccc([C@@H](O)c2cc(-c3ncnc4cc(N5CCOCC5)ccc34)c(F)cc2Cl)nn1 + NC1CCC(NC2CC2c2ccccc2)CC1

>  <viability, T/C [%]>
38.8

$$$$
>  <compound>
O=C(c1cc(Cc2n[nH]c(=O)c3ccccc23)ccc1F)N1CCN(C(=O)C2CC2)CC1 + NC1CC1c1ccc(-c2cccc(O)c2)cc1

>  <viability, T/C [%]>
74.6

$$$$
>  <compound>
O=C(c1cc(Cc2n[nH]c(=O)c3ccccc23)ccc1F)N1CCN(C(=O)C2CC2)CC1 + NC1CCC(NC2CC2c2ccccc2)CC1

>  <viability, T/C [%]>
89

$$$$
>  <compound>
COc1ccc([C@@H](O)c2cc(-c3ncnc4cc(N5CCOCC5)ccc34)c(F)cc2Cl)nn1 + NC1CC1c1ccc(-c2cccc(O)c2)cc1

>  <viability, T/C [%]>
39.9

$$$$
>  <compound>
CC1COCCN1c1cc(C2(S(C)(=N)=O)CC2)nc(-c2ccnc3[nH]ccc23)n1 (stereo not given) + NC1CCC(NC2CC2c2ccccc2)CC1

>  <viability, T/C [%]>
13.2

$$$$
>  <compound>
CC1(C)CCC(CN2CCN(c3ccc(C(=O)NS(=O)(=O)c4ccc(NCC5CCOCC5)c([N+](=O)[O-])c4)c(Oc4cnc5[nH]ccc5c4)c3)CC2)=C(c2ccc(Cl)cc2)C1 + NC1CC1c1ccc(-c2cccc(O)c2)cc1

>  <viability, T/C [%]>
60.4

$$$$
>  <compound>
CC1COCCN1c1cc(C2(S(C)(=N)=O)CC2)nc(-c2ccnc3[nH]ccc23)n1 (stereo not given) + NC1CC1c1ccc(-c2cccc(O)c2)cc1

>  <viability, T/C [%]>
15.2

$$$$
>  <compound>
CC1(C)CCC(CN2CCN(c3ccc(C(=O)NS(=O)(=O)c4ccc(NCC5CCOCC5)c([N+](=O)[O-])c4)c(Oc4cnc5[nH]ccc5c4)c3)CC2)=C(c2ccc(Cl)cc2)C1 + NC1CCC(NC2CC2c2ccccc2)CC1

>  <viability, T/C [%]>
59.5

$$$$

Input line: Query for 521955-158-R2-J5-PDC complex spheroid viability: what viability, T/C does the record show for CC(C)c1c(-c2ccccc2)nc2c(C#N)c[nH]n2c1=O + NC1CC1c1ccc(-c2cccc(O)c2)cc1 ?
Output line: 54.5

Input line: Query for 521955-158-R2-J5-PDC complex spheroid viability: what viability, T/C does the record show for CC(C)c1c(-c2ccccc2)nc2c(C#N)c[nH]n2c1=O + NC1CCC(NC2CC2c2ccccc2)CC1 ?
Output line: 70.9
